Numbers sourced from patent US9051310B2.

- tested-on: glutathione S-transferase (GST)-linked full-length human Syk protein (Homo sapiens, UniProt P43405)
pIC50: −log10 of the molar value.
endpoint-name: pIC50

Here's what some known entries look like.
compound | endpoint-name | endpoint-value
COc1cc(Nc2nc(N[C@H](C3CCC3)[C@H](C)N)c(F)cc2C(N)=O)cc(OC)n1 [Example 2-6] | pIC50 | > 8.00
C[C@H](N)[C@H](Nc1nc(Nc2ccc3cnn(C)c3c2)c(C(N)=O)cc1F)C1CCC1 [Example 2-10] | pIC50 | > 8.00
Cc1cnn(-c2cncc(Nc3nc(N[C@H](CC(C)C)[C@H](C)N)c(F)cc3C(N)=O)c2)c1 [Example 2-525] | pIC50 | > 8.00

What does the data say about its pIC50? Entry: C[C@H](N)[C@H](Nc1nc(Nc2cnc(N3CCOCC3)c(F)c2)c(C(N)=O)cc1F)c1ccccc1 [Example 2-314]
> 8.00

What does the data say about its pIC50? Entry: CC[C@@H](Nc1nc(Nc2ccnc(OCCOC)c2)c(C(N)=O)cc1F)[C@H](C)N [Example 2-34]
7.30 to 8.00

What does the data say about its pIC50? Entry: CCn1ncc2cc(Nc3nc(N[C@H](C4CCC4)[C@H](C)N)c(F)cc3C(N)=O)ccc21 [Example 2-9]
> 8.00

What does the data say about its pIC50? Entry: CN(C)c1nn(C)c2ncc(Nc3nc(N[C@@H]4CCCC[C@@H]4N)c(F)cc3C(N)=O)cc12 [Example 2-286]
7.30 to 8.00

What does the data say about its pIC50? Entry: CC(C)C[C@H](CN)Nc1nc(Nc2cnc(N3CCOCC3)c(F)c2)c(C(N)=O)cc1F [Example 2-261]
7.30 to 8.00

What does the data say about its pIC50? Entry: CCC[C@@H](Nc1nc(Nc2cnc(NC)c(F)c2)c(C(N)=O)cc1F)[C@H](C)N [Example 2-277]
7.30 to 8.00

What does the data say about its pIC50? Entry: COc1ncc(Nc2nc(N[C@@H]3CCOC[C@@H]3N)c(F)cc2C(N)=O)cc1-n1nccn1 [Example 2-216]
7.30 to 8.00

What does the data say about its pIC50? Entry: Cn1nc(F)c2cc(Nc3nc(N[C@@H]4CCOC[C@@H]4N)c(F)cc3C(N)=O)ccc21 [Example 2-209]
> 8.00

----------
- tested-on: glutathione S-transferase (GST)-linked full-length human Syk protein (Homo sapiens)
endpoint-name: IC50

Here's what some known entries look like.
chem-smiles | IC50
COc1cc(Nc2nc(N[C@H](C)[C@@H](N)C3CC3)c(F)cc2C(N)=O)cc(OC)c1 | 10 to 50 nM
CC[C@H](N)[C@@H](C)Nc1nc(Nc2ccc3c(c2)c(C)nn3CCOC)c(C(N)=O)cc1F | 10 to 50 nM

What does the data say about its IC50? Entry: CCn1ncc2c(Nc3nc(N[C@@H]4CCOC[C@@H]4N)c(F)cc3C(N)=O)cc(F)cc21
< 10 nM

What does the data say about its IC50? Entry: COCCn1ncc2cc(Nc3nc(N[C@H](c4cc(F)cc(F)c4)[C@H](C)N)c(F)cc3C(N)=O)ccc21
< 10 nM

----------
IC50 values recorded for glutathione S-transferase (GST)-linked full-length human Syk protein (Homo sapiens)

molecule | endpoint-value
CC[C@@H](Nc1nc(Nc2cccc3c2cnn3CCOC)c(C(N)=O)cc1F)[C@H](C)N | < 10 nM

What is its IC50 for glutathione S-transferase (GST)-linked full-length human Syk protein (Homo sapiens)? Entry: CC[C@H](N)[C@@H](C)Nc1nc(Nc2ccc3c(c2)c(N(C)C)nn3C)c(C(N)=O)cc1F
10 to 50 nM

What is its IC50 for glutathione S-transferase (GST)-linked full-length human Syk protein (Homo sapiens)? Entry: Cc1ncc(Nc2nc(N[C@H](CC(C)C)[C@H](C)N)c(F)cc2C(N)=O)cc1F
< 10 nM

What is its IC50 for glutathione S-transferase (GST)-linked full-length human Syk protein (Homo sapiens)? Entry: CCOc1ncc(Nc2nc(N[C@H](CC)[C@H](C)N)c(F)cc2C(N)=O)cc1-n1cccn1
10 to 50 nM

What is its IC50 for glutathione S-transferase (GST)-linked full-length human Syk protein (Homo sapiens)? Entry: COc1ncc(Nc2nc(N[C@@H]3CCCC[C@@H]3N)c(F)cc2C(N)=O)c2cnn(C)c12
10 to 50 nM

What is its IC50 for glutathione S-transferase (GST)-linked full-length human Syk protein (Homo sapiens)? Entry: C[C@H](N)[C@H](Nc1nc(Nc2ccc3c(c2)c(N(C)C)nn3C)c(C(N)=O)cc1F)c1ccccc1
10 to 50 nM

What is its IC50 for glutathione S-transferase (GST)-linked full-length human Syk protein (Homo sapiens)? Entry: CC[C@@H](Nc1nc(Nc2ccc3[nH]nc(NC)c3c2)c(C(N)=O)cc1F)[C@H](C)N
10 to 50 nM

What is its IC50 for glutathione S-transferase (GST)-linked full-length human Syk protein (Homo sapiens)? Entry: C[C@H](N)[C@H](Nc1nc(Nc2cccc3c2cnn3CC(F)F)c(C(N)=O)cc1F)C1CC1
< 10 nM

----------
- tested-on: glutathione S-transferase (GST)-linked full-length human Syk protein (Homo sapiens)
- Construct: glutathione S-transferase (GST)-linked full-length human Syk protein; purchased Carna Biosciences; host or cells: Baculovirus expression system
- assay-protocol: Syk enzyme assay
- Type: biochemical
- measurement-setup: 0.83 nM Syk, time-resolved fluorescence; read-out: IC50 of Syk-inhibitory activity
endpoint-name: IC50

What does the data say about its IC50? Entry: CC[C@H](N)[C@@H](C)Nc1nc(Nc2cccc3c2cnn3CCOC)c(C(N)=O)cc1F
< 10 nM

What does the data say about its IC50? Entry: COc1nn(C)c2c(F)cc(Nc3nc(N[C@@H]4CCCC[C@@H]4N)c(F)cc3C(N)=O)cc12
< 10 nM

What does the data say about its IC50? Entry: CC[C@@H](Nc1nc(Nc2ccc3c(c2)c(OC(F)F)nn3CCOC)c(C(N)=O)cc1F)[C@H](C)N
< 10 nM

What does the data say about its IC50? Entry: CC(=O)c1cc(Nc2nc(N[C@@H]3CCCC[C@@H]3N)c(F)cc2C(N)=O)cnc1C
< 10 nM

What does the data say about its IC50? Entry: C[C@H](N)[C@H](Nc1nc(Nc2cnc(N3CCOCC3)c(F)c2)c(C(N)=O)cc1F)C1CCC1
10 to 50 nM

----------
- tested-on: glutathione S-transferase (GST)-linked full-length human Syk protein (Homo sapiens, UniProt P43405)
// reported IC50 per item

Here's what some known entries look like.
chem-smiles | IC50
COc1nn(C)c2c(F)cc(Nc3nc(N[C@@H](CN)CC(C)C)c(F)cc3C(N)=O)cc12 | < 10 nM
CC[C@@H](Nc1nc(Nc2cnc3c(c2)c(OC)nn3C)c(C(N)=O)cc1F)[C@H](C)N | 10 to 50 nM
CCOc1ncc(Nc2nc(N[C@H](CC(C)C)[C@H](C)N)c(F)cc2C(N)=O)cc1-n1ccnn1 | < 10 nM
CCC[C@@H](Nc1nc(Nc2ccc3c(c2)c(OC)nn3CCOC)c(C(N)=O)cc1F)[C@H](C)N | < 10 nM
CC[C@H](N)[C@@H](C)Nc1nc(Nc2ccc3c(c2)c(N(C)CCOC)nn3C)c(C(N)=O)cc1F | 10 to 50 nM
CN(C)c1nn(C)c2ccc(Nc3nc(N[C@@H]4CCCC[C@@H]4N)c(F)cc3C(N)=O)cc12 | < 10 nM

What does the data say about its IC50? Entry: CC[C@@H](Nc1nc(Nc2cnc(C)c(F)c2)c(C(N)=O)cc1F)[C@H](C)N
10 to 50 nM

What does the data say about its IC50? Entry: CCn1ncc2c(Nc3nc(N[C@H](c4cccs4)[C@H](C)N)c(F)cc3C(N)=O)cccc21
< 10 nM

What does the data say about its IC50? Entry: CC(C)C[C@@H](Nc1nc(Nc2ccc3nn(C)c(N(C)C)c3c2)c(C(N)=O)cc1F)[C@H](C)N
< 10 nM

What does the data say about its IC50? Entry: Cc1ccc(Nc2nc(N[C@@H]3CCCC[C@@H]3N)c(F)cc2C(N)=O)cc1
< 10 nM

What does the data say about its IC50? Entry: CC[C@@H](Nc1nc(Nc2cnc(C)c(-n3nccn3)c2)c(C(N)=O)cc1F)[C@H](C)N
< 10 nM

----------
- tested-on: UniProtKB P43405
pIC50: −log10 of the molar value.
endpoint-name: pIC50

Here's what some known entries look like.
molecule | endpoint-value
COCCn1ncc2c(Nc3nc(N[C@H](C4CCC4)[C@H](C)N)c(F)cc3C(N)=O)cncc21 [Example 2-391] | > 8.00
C[C@H](N)[C@@H](CC1CC1)Nc1nc(Nc2ccc3c(c2)c(N(C)C)nn3C)c(C(N)=O)cc1F [Example 2-2] | > 8.00
CCC[C@@H](Nc1nc(Nc2cnc(OCC)c(-n3cccn3)c2)c(C(N)=O)cc1F)[C@H](C)N [Example 2-201] | 7.30 to 8.00
COCCn1nc(N(C)C)c2cc(Nc3nc(N[C@H](C4CCC4)[C@H](C)N)c(F)cc3C(N)=O)ccc21 [Example 2-506] | 7.30 to 8.00
CCCC[C@@H](Nc1nc(Nc2ccc3c(c2)c(N(C)C)nn3C)c(C(N)=O)cc1F)[C@H](C)N [Example 2-90] | 7.30 to 8.00

What is its pIC50 for UniProtKB P43405? Entry: Cc1ncc(Nc2nc(N[C@H](c3ccc(F)c(F)c3)[C@H](C)N)c(F)cc2C(N)=O)cc1-n1nccn1 [Example 2-552]
> 8.00

What is its pIC50 for UniProtKB P43405? Entry: COc1cc(Nc2nc(N[C@H](c3ccc(C(F)(F)F)cc3)[C@H](C)N)c(F)cc2C(N)=O)cc(OC)n1 [Example 2-355]
> 8.00
